Attribute: SF: selectivity factor = IC50 CYP11B1/IC50 CYP11B2
# TARGET DESC: human CYP11B2 (Homo sapiens, UniProt P19099)
# Construct: expressed in transfected cells; host or cells: V79MZh cells
# Sequence (P19099 25-503): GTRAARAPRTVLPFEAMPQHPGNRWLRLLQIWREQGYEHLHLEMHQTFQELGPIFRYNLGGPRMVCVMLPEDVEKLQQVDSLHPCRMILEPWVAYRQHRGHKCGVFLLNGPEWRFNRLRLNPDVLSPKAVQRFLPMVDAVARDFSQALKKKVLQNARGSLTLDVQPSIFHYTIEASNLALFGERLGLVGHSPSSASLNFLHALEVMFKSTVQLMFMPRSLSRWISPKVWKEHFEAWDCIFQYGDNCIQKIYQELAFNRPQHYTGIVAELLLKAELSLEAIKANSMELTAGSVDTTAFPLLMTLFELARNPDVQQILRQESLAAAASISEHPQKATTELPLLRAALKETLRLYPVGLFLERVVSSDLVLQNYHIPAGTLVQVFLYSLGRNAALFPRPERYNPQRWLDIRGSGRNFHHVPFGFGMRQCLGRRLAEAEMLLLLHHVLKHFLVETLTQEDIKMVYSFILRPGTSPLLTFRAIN
# PROTOCOL TEXT: Inhibition of CYP11B2 in V79 MZh cells expressing the enzyme
# Type: cell-based
# ASSAY CONDITIONS: CYP11B2 over CYP11B1
Write the value as a bare number.

See these solved cases before continuing.
COMPOUND | TARGET DESC | RECORDED VALUE
c1cncc(C2CCCCCCC2)c1 | human CYP11B2 (Homo sapiens, UniProt P19099) | 50
C1=C(c2cccnc2)CCCCCC1 | human CYP11B2 (Homo sapiens, UniProt P19099) | 2
COC1CCc2cc(-c3cccnc3)ccc2C1 (centres unmarked) [II, reference compound] | human CYP11B2 (Homo sapiens, UniProt P19099) | 347

Record OC1CC2CC(c3cccnc3)CC2C1 (centres unmarked) [Compound 6, 5-Pyridin-3-yl-octahydro-pentalen-2-ol] / human CYP11B2 (Homo sapiens, UniProt P19099), SF: selectivity factor = IC50 CYP11B1/IC50 CYP11B2 recorded as 0.4

Record c1cncc(C2CCC3CCCCC3C2)c1 (centres unmarked) [Compound 1, 3-(Decahydro-naphthalen-2-yl)-pyridine] / human CYP11B2 (Homo sapiens, UniProt P19099), SF: selectivity factor = IC50 CYP11B1/IC50 CYP11B2 recorded as 4

Reference source: paper PMC3486838
